meta.source: ChEMBL document CHEMBL4420071

Organism: Homo sapiens
assay_overview: Inhibition of transglutaminase in human keratinocytes assessed as mean transglutaminase activity level at 1.1 10^-4M in presence of 10 uM retinal relative to retinal alone
Format: cell-based
Parameters: scale not given: the % may be the effect or the level left
Quick reference for Activity among some compounds
Note: unit % is implicit; provide only the numeric part.

Worked cases, Activity given:
CC/C=C\C/C=C\C/C=C\CCCCCCCC(=O)O : -23
CCCCC/C=C\C/C=C\CCCCCCCC(=O)O : 4.4
CC(C)CCCCCCCCCCCCCCC(=O)O : 1.2
CCCCCCCC/C=C/CCCCCCCC(=O)O : 8
CCCCCCCCCCCCCC(=O)O : -8

Output Activity of O=C(O)CCCCCCCCCCCCCCC(=O)O
14.2
